# system_name: Carbonic anhydrase 1 (Homo sapiens)
# Sequence (P00915 whole entry): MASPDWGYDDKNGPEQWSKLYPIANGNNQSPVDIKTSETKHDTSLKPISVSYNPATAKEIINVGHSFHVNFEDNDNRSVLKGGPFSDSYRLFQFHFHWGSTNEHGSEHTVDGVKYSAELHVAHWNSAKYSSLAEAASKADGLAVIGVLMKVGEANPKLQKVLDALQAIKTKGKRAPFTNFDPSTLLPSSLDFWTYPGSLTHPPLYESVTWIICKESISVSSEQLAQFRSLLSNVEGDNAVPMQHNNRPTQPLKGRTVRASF
# test_description: Inhibition of recombinant human carbonic anhydrase 1 incubated for 15 mins prior to testing measured for 10 to 100 secs by phenol red based stopped-flow CO2 hydration assay
Assign Ki to each entry below.
Form entry: value (nM) — number only.

Task item: Request the reported Ki associated with `NS(=O)(=O)c1ccc(N2CCN=C2c2ccc(Cl)cc2)cc1`
Reply: 960

Task item: Request the reported Ki associated with `NS(=O)(=O)c1ccc(N2CCN=C2c2ccc(F)cc2)cc1`
Reply: 2340

* * *

# system_name: Carbonic anhydrase 2 (Homo sapiens, UniProt P00918)
# test_description: Inhibition of recombinant human carbonic anhydrase 2 incubated for 15 mins prior to testing measured for 10 to 100 secs by phenol red based stopped-flow CO2 hydration assay
metric: Ki (nM)
Form entry: value (nM) — number only.

Task item: Request the reported Ki associated with `COc1ccc(N2CCN=C2c2ccc(S(N)(=O)=O)cc2)cc1OC`
Reply: 724

Task item: Request the reported Ki associated with `NS(=O)(=O)c1ccc(C2=NCCN2c2cncnc2)cc1`
Reply: 703

Task item: Request the reported Ki associated with `COc1ccc(N2CCN=C2c2ccc(S(N)(=O)=O)cc2)cc1`
Reply: 53.3

Task item: Request the reported Ki associated with `NS(=O)(=O)c1ccc(N2CCN=C2c2ccc(Cl)cc2)cc1`
Reply: 46.7

Task item: Request the reported Ki associated with `NS(=O)(=O)c1ccc(C2=NCCN2c2cccnc2)cc1`
Reply: 848

Task item: Request the reported Ki associated with `NS(=O)(=O)c1ccc(N2CCN=C2c2ccc(F)cc2)cc1`
Reply: 76.1

Task item: Request the reported Ki associated with `NS(=O)(=O)c1ccc(C2=NCCN2c2ccccc2)cc1`
Reply: 376

Task item: Request the reported Ki associated with `NS(=O)(=O)c1ccc(C2=NCCN2c2ccc(F)cc2)cc1`
Reply: 742

Task item: Request the reported Ki associated with `CCOc1ccccc1N1CCN=C1c1ccc(S(N)(=O)=O)cc1`
Reply: 866

Task item: Request the reported Ki associated with `Cc1ccccc1N1CCN=C1c1ccc(S(N)(=O)=O)cc1`
Reply: 61.7

Task item: Request the reported Ki associated with `NS(=O)(=O)c1ccc(C2=NCCN2c2ccc(Cl)cc2)cc1`
Reply: 182
